molecular target: Cytochrome P450 1A2 (Homo sapiens); test: p450-cyp1a2 (AID 410); settings: recombinant CYP1A2, luciferin-ME demethylation, luminescence; series mostly up to 11.4 µM
Records with an inconclusive call do not appear. The source made the active and inactive calls. Calls follow the shape of the full dose curve.
Can you answer with just one of these options? active, inactive

[ask] Assay result, entry O=c1cc(CF)[nH]c(=S)[nH]1 — outcome?
[reply] inactive

[ask] Assay result, entry CCn1c2ccccc2c2nnc(NCCCO)nc21 — outcome?
[reply] active

[ask] Assay result, entry C[C@H](NC(=O)c1ccc(Cl)c(Cl)c1)c1ccc(-c2ccccc2)cc1 — outcome?
[reply] active

[ask] Assay result, entry COc1ccc(CNc2ncnc3ccc(-c4ccccc4C#N)cc23)c(OC)c1 — outcome?
[reply] active

[ask] Assay result, entry C[C@@H](Cc1ccccc1)Nc1ncnc2c1ncn2[C@@H]1O[C@@H](CO)[C@H](O)[C@@H]1O — outcome?
[reply] inactive

[ask] Assay result, entry C[C@@](N)(/C=C\c1ccccc1)C(=O)O — outcome?
[reply] inactive

[ask] Assay result, entry NNC(=O)[C@@H](O)[C@H](O)[C@H](O)CO — outcome?
[reply] inactive

[ask] Assay result, entry N#Cc1ccc(CN2CC3(CCN(C(=O)c4cc(C(F)(F)F)cc(C(F)(F)F)c4)CC3)C2)cc1 — outcome?
[reply] inactive

[ask] Assay result, entry CN(C)CCCN1CCC2(CCC(C(C)(C)C)CC2)CC1 — outcome?
[reply] inactive

[ask] Assay result, entry O=C1CC[C@H](NC(=O)c2ccccc2)C(=O)N1 — outcome?
[reply] inactive

[ask] Assay result, entry Cc1cc(=O)oc2c(OS(C)(=O)=O)c(OS(C)(=O)=O)ccc12 — outcome?
[reply] active

[ask] Assay result, entry N=C(c1ccc2ccccc2c1)c1ccccc1Cc1ccccc1 — outcome?
[reply] active

[ask] Assay result, entry O=c1ccnc(SCc2ccc(Cl)cc2)[nH]1 — outcome?
[reply] inactive

[ask] Assay result, entry Oc1ccc([C@@H]2CNCCc3c2cc(O)c(O)c3Cl)cc1 — outcome?
[reply] inactive

---

test: Stat Signaling Pathway (AID 446); details: ME-180 (cervical carcinoma) SIE beta-lactamase reporter, IL-6 stimulated, 5 h; at 7.69 µM (top of the series) unless noted;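 also: ME-180 cervical cancer cells given 40 pM IL-6 alongside compound; SIE-controlled beta-lactamase reporter measured as 460/530 nm FRET emission ratio; % is scaled to controls: 0 for no effect and ±100 for the full control effect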
Results filed as inconclusive are left out.
ASSAY READOUT: activity, negative = inhibition (%)
# number only, unit % dropped from output

[ask] Give activity, negative = inhibition for the following compound: O=S(=O)(c1cnccc1N1CCN(CCO)CC1)N1CCCC1
[reply] 8.84

[ask] Give activity, negative = inhibition for the following compound: O=CNc1ncn[nH]1
[reply] 8.03

[ask] Give activity, negative = inhibition for the following compound: c1ccc2c(CC3NCCN3)cccc2c1
[reply] 1.71

[ask] Give activity, negative = inhibition for the following compound: Cn1c(=O)c2[nH]c(CCCc3ccc([N+](=O)[O-])cc3)nc2n(C)c1=O
[reply] 6

[ask] Give activity, negative = inhibition for the following compound: O=C(Nc1cccc2cccnc12)[C@@H]1[C@@H](C(=O)O)[C@H]2CC[C@@H]1O2
[reply] -11

[ask] Give activity, negative = inhibition for the following compound: CC(C)(SCc1ccccc1)[C@H](N)C(=O)O
[reply] 5.95

[ask] Give activity, negative = inhibition for the following compound: COCCNc1nc(-c2ccc(C(=O)N(C)C)cc2)nc2ccccc12
[reply] 1.02

[ask] Give activity, negative = inhibition for the following compound: O=C1c2ccccc2C(=O)N1C[C@]1(C(=O)O)NCCS1(=O)=O
[reply] -1.43

[ask] Give activity, negative = inhibition for the following compound: Cc1nc2ccccc2nc1N1CCCC1
[reply] 3.44

All values here come from PubChem BioAssay (NCATS).
